# assay_target: T1, recombinant human IL-23R/Fc chimera (R&D Systems) (human, UniProt Q5VWK5 24-355)
# T1 construct: Bought; also called rhIL23RFc
# T1 sequence (looked up): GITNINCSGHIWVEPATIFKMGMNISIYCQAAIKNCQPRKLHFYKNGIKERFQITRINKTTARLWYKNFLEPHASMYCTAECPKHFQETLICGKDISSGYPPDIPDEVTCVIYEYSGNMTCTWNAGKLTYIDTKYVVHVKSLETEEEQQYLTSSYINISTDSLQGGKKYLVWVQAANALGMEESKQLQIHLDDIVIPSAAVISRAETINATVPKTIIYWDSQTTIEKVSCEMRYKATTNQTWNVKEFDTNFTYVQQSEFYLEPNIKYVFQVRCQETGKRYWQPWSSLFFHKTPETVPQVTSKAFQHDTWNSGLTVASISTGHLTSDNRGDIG
# experimental_details: competition ELISA vs IL-23
Kindly supply the reported Ratio IC50 to 056-53.H4E IC50 values for the records listed here.
One number for each entry.

| binder | quantity_name | reported_measurement |
| --- | --- | --- |
| 105-08-1B1 ATRIMER complex (designed binder, ATRIMER complex: homotrimer of three copies of this chain, joined by the tetranectin coiled coil, not shown: C-terminal tag: Myc/His (pANA4) or HA-StrepII (pANA10)) EPPTQKPKKIVNAKKDVVNTKMFEELKSRLDTLAQEVALLKEQQALQTVCLKGTKVHMKCFLAFTQTKTFHEASEDCISRGGTLSTPQTGSENDALYEYLRQSVGNEAEIWLGLNGSPRTQTWVDMTGARIAYKNWETEITAQPDGGFGYFGENCAVLSGAANGKWFDKRCRDQLPYICQFGIV | Ratio IC50 to 056-53.H4E IC50 | 3.3 |

// for each binder in input: emit Ratio IC50 to 056-53.H4E IC50
1. 105-08-1C2 ATRIMER complex (designed binder) EPPTQKPKKIVNAKKDVVNTKMFEELKSRLDTLAQEVALLKEQQALQTVCLKGTKVHMKCFLAFTQTKTFHEASEDCISRGGTLSTPQTGSENDALYEYLRQSVGNEAEIWLGLNGSRATDTWVDMTGARIAYKNWETEITAQPDGGFGYFGENCAVLSGAANGKWFDKRCRDQLPYICQFGIV
2. 105-08-2H3 ATRIMER complex (designed binder, ATRIMER complex: homotrimer of three copies of this chain, joined by the tetranectin coiled coil, not shown: C-terminal tag: Myc/His (pANA4) or HA-StrepII (pANA10)) EPPTQKPKKIVNAKKDVVNTKMFEELKSRLDTLAQEVALLKEQQALQTVCLKGTKVHMKCFLAFTQTKTFHEASEDCISRGGTLSTPQTGSENDALYEYLRQSVGNEAEIWLGLNGSSLTNTWVDMTGARIAYKNWETEITAQPDGGWGYFGENCAVLSGAANGKWFDKRCRDQLPYICQFGIV

Output line:
[4.1, 2.9]
